Biological target: human S1P5 (EDG-8) (Homo sapiens (Human), UniProt Q9H228)
Sequence (Q9H228 whole entry): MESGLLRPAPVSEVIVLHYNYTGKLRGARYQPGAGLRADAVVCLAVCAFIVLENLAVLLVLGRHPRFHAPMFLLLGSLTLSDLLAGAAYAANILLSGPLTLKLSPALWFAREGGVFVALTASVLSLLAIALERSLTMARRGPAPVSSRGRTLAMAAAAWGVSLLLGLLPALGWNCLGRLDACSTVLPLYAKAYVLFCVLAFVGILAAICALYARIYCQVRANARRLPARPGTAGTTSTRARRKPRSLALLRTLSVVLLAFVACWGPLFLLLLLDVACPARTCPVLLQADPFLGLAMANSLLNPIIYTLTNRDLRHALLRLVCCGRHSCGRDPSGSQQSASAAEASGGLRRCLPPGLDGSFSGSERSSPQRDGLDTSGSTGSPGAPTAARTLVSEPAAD
Assay: S1P5 receptor agonist activity by monitoring intracellular cyclic AMP in CHO cells overexpressing human S1P5
Conditions: cAMP, forskolin-stimulated CHO cells overexpressing human S1P5
property: EC50

Example results:
O=C(O)CCCN1CCc2cccc(OCCCc3ccccc3)c2CC1    0.001 to 0.1 µM
O=C(O)C1CN(C2CCc3cccc(OCCc4cccc5ccccc45)c3C2)C1 (stereo not drawn)    0.001 to 0.1 µM

Reported EC50 for human S1P5 (EDG-8) (Homo sapiens (Human), UniProt Q9H228), given `O=C(O)CCCN1CCc2cccc(OCCc3cccc4ccccc34)c2CC1` ?
0.001 to 0.1 µM
